tested on: Mtb H37Rv in THP-1 macrophages; experiment: Intracellular MIC assay in THP-1 macrophages; format: cell-based, Mycobacterium tuberculosis; design: unit not given here
*1 amine or outer side, *2 acyl side, *3 side chain or, on linkers, in order; H or OH if unused. Where a SMILES comes first, the peptide text is derived from it. [ ]: non-standard residue; d: D form. X1 = C#CCn1cc(C[C@H](N[*:1])C(=O)[*:2])c2ccccc21; NMeLeu(5-OH,4R) = CN[C@@H](C[C@@H](C)CO)C(=O)O; Phe(βR-OMe) = CO[C@H](c1ccccc1)[C@H](N)C(=O)O; Trp(1-Me) = Cn1cc(C[C@H](N)C(=O)O)c2ccccc21; NMeL = CN[C@@H](CC(C)C)C(=O)O; Pra = C#CC[C@H](N)C(=O)O
READOUT_NAME: Emax
Answer as a number with no unit attached.

Examples with answers:
COMPOUND | Emax
CO[C@H](c1ccccc1)[C@@H]1NC(=O)[C@H](C)NC(=O)[C@H](C[C@@H](C)CO)N(C)C(=O)[C@H](Cc2cn(Cc3cn(CCOCCOCCOCCn4cc(Cn5cc(C[C@@H]6NC(=O)[C@H](C(C)C)NC(=O)[C@H](CC(C)C)N(C)C(=O)[C@H](C(C)C)NC(=O)[C@H]([C@H](OC)c7ccccc7)NC(=O)[C@H](C)NC(=O)[C@H](C[C@@H](C)CO)N(C)C6=O)c6ccccc65)nn4)nn3)c3ccccc23)NC(=O)[C@H](C(C)C)NC(=O)[C@H](CC(C)C)N(C)C(=O)[C@H](C(C)C)NC1=O | 1.22
CO[C@H](c1ccccc1)[C@@H]1NC(=O)[C@H](C)NC(=O)[C@H](C[C@@H](C)CO)N(C)C(=O)[C@H](Cc2cn(C)c3ccccc23)NC(=O)[C@H](Cc2cn(CCOCCOCCn3cc(C[C@@H]4NC(=O)[C@H](CC(C)C)N(C)C(=O)[C@H](C(C)C)NC(=O)[C@H]([C@H](OC)c5ccccc5)NC(=O)[C@H](C)NC(=O)[C@H](C[C@@H](C)CO)N(C)C(=O)[C@H](Cc5cn(C)c6ccccc56)NC4=O)nn3)nn2)NC(=O)[C@H](CC(C)C)N(C)C(=O)[C@H](C(C)C)NC1=O | 0.51
COC(c1ccccc1)C1NC(=O)C(C)NC(=O)C(CC(C)CO)N(C)C(=O)C(Cc2cn(C)c3ccccc23)NC(=O)C(Cc2cn(CCCCCn3cc(CC4NC(=O)C(CC(C)C)N(C)C(=O)C(C(C)C)NC(=O)C(C(OC)c5ccccc5)NC(=O)C(C)NC(=O)C(CC(C)CO)N(C)C(=O)C(Cc5cn(C)c6ccccc56)NC4=O)nn3)nn2)NC(=O)C(CC(C)C)N(C)C(=O)C(C(C)C)NC1=O (stereo not drawn) | 0.28
C#CCn1cc(C[C@@H]2NC(=O)[C@H](C(C)C)NC(=O)[C@H](CC(C)C)N(C)C(=O)[C@H](C(C)C)NC(=O)[C@H]([C@H](OC)c3ccccc3)NC(=O)[C@H](C)NC(=O)[C@H](C[C@@H](C)CO)N(C)C2=O)c2ccccc21 [Compound 5] (cyclo(A[Phe(βR-OMe)]V[NMeL]V[X1][NMeLeu(5-OH,4R)])) | 1.14
COC(c1ccccc1)C1NC(=O)C(C)NC(=O)C(CC(C)CO)N(C)C(=O)C(Cc2cn(Cc3cn(CCOCCOCCOCCOCCn4cc(Cn5cc(CC6NC(=O)C(C(C)C)NC(=O)C(CC(C)C)N(C)C(=O)C(C(C)C)NC(=O)C(C(OC)c7ccccc7)NC(=O)C(C)NC(=O)C(CC(C)CO)N(C)C6=O)c6ccccc65)nn4)nn3)c3ccccc23)NC(=O)C(C(C)C)NC(=O)C(CC(C)C)N(C)C(=O)C(C(C)C)NC1=O (stereo not drawn) | 1.27

--- query ---
Problem: Requested read-out: Emax. Entry: C#CC[C@@H]1NC(=O)[C@H](CC(C)C)N(C)C(=O)[C@H](C(C)C)NC(=O)[C@H]([C@H](OC)c2ccccc2)NC(=O)[C@H](C)NC(=O)[C@H](C[C@@H](C)CO)N(C)C(=O)[C@H](Cc2cn(C)c3ccccc23)NC1=O [Compound 10] (cyclo(A[Phe(βR-OMe)]V[NMeL][Pra][Trp(1-Me)][NMeLeu(5-OH,4R)]))
Solution: 0.19

// provenance: paper PMC10914731
